target: beta-catenin/TCF4 engagement (Homo sapiens); construct: expressed in transfected cells; host or cells: HEK293; test: Nano-BRET target engagement assay (B-cat-Halo & TCF4-Luc in HEK293 cells); format: cell-based; details: read-out: NanoBRET Abs IC50
pIC50: −log10 of the molar value.
Documented pIC50 across a set of molecules
PROPERTY: pIC50

MOLECULE	PROPERTY	LIMIT_OPERATOR	OBS_VALUE
CC(=O)N1CCC[C@]12CC=CCCCC1(CCCC=CCCCOC(=O)N3CC[C@@](C(=O)N[C@@H](Cc4ccsc4)C(=O)N[C@@H](Cc4csc5ccccc45)C(=O)N[C@@H](CCC(N)=O)C(N)=O)(C3)NC(=O)[C@H](CCC(=O)N3CCN(CCCN(C)C)CC3)NC(=O)[C@H](Cc3ccccc3)NC(=O)[C@H](C)NC(=O)[C@H](C)NC(=O)[C@H](CN(CC(=O)O)CC(F)(F)F)NC(=O)[C@H](CC(=O)O)NC1=O)NC(=O)[C@H](CC(C)(C)C)NC(=O)[C@H](CC(=O)O)NC2=O (stereo partly drawn)	pIC50	=	4.80
CC(=O)N1CCC[C@]12CC=CCCCC1(CCCC=CCCCCOC(=O)N3CC[C@@](C(=O)N[C@@H](Cc4ccsc4)C(=O)N[C@@H](Cc4csc5ccccc45)C(=O)N[C@@H](Cc4c[nH]cn4)C(=O)N[C@@H](C)C(N)=O)(C3)NC(=O)[C@H](CC(N)=O)NC(=O)[C@H](Cc3ccccc3)NC(=O)[C@H](C)NC(=O)[C@H](C)NC(=O)[C@H](CC(=O)O)NC(=O)[C@H](CC(=O)O)NC1=O)NC(=O)[C@H](CC(C)(C)C)NC(=O)[C@H](CC(=O)O)NC2=O (stereo partly drawn)	pIC50	<	4.70
CC(=O)N1CCC[C@]12CC=CCCCC1(CCCC=CCCCCOC(=O)N3CC[C@@](C(=O)N[C@@H](Cc4ccsc4)C(=O)N[C@@H](Cc4csc5ccccc45)C(=O)N[C@@H](CCC(N)=O)C(N)=O)(C3)NC(=O)[C@H](CC(N)=O)NC(=O)[C@H](Cc3ccccc3)NC(=O)[C@H](C)NC(=O)[C@H](C)NC(=O)[C@H](CC(=O)O)NC(=O)[C@H](CC(=O)O)NC1=O)NC(=O)[C@H](CC(C)(C)C)NC(=O)[C@H](CC(=O)O)NC2=O (stereo partly drawn) [I-768]	pIC50	=	4.50

* * *

Target: full-length beta-Catenin (Uniprot ID P35222) (Homo sapiens, UniProt P35222)
Construct: 10 nM full-length beta-Catenin (Uniprot ID P35222)
Sequence (P35222 1-781): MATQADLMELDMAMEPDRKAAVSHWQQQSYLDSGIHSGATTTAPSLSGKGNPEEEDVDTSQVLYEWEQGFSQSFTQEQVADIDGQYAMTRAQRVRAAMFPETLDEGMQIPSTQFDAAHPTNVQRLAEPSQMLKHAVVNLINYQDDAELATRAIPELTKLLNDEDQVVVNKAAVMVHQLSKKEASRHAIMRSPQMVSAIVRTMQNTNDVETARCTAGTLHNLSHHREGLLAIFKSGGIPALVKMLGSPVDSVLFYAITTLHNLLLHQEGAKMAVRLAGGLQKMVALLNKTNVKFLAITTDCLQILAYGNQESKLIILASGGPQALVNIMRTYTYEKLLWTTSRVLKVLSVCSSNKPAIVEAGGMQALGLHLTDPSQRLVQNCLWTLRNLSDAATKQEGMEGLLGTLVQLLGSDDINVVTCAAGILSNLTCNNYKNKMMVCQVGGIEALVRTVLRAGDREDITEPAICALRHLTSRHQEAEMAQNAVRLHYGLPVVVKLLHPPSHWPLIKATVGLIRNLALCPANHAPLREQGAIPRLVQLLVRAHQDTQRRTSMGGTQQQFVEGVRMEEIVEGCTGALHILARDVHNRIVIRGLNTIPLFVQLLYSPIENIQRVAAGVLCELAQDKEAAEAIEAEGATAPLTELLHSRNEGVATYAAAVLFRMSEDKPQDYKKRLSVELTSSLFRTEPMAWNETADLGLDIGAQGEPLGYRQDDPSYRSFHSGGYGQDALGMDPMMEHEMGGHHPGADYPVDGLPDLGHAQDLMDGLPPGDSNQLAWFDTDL
Test: Fluorescence polarization IC50 (beta-catenin / 5FAM-TCF4 10-53 competition)
Type: binding
Conditions: fluorescence polarization; read-out: beta-Catenin FP IC50
Documented IC50 across a set of molecules
PROPERTY: IC50 (nM)

MOLECULE	PROPERTY	MEASUREMENT_UNITS	OBS_VALUE
CC(=O)N1CCC[C@]12CC=CCCCC1(CCCC=CCCCOC(=O)N3CC[C@@](C(=O)N[C@@H](Cc4ccsc4)C(=O)N[C@@H](Cc4csc5ccccc45)C(=O)N[C@@H](C)C(N)=O)(C3)NC(=O)[C@H](Cc3ccccc3)NC(=O)[C@H](Cc3ccccc3)NC(=O)[C@H](C)NC(=O)[C@H](C)NC(=O)[C@H](Cc3cccc(C(=O)O)c3)NC(=O)[C@H](CC(=O)O)NC1=O)NC(=O)[C@H](CC(C)(C)C)NC(=O)[C@H](CC(=O)O)NC2=O (stereo partly drawn) [I-2259]	IC50	nM	30
CC(=O)N1CCC[C@]12CC=CCCCC1(CCCC=CCCCOC(=O)N3CC[C@@](C(=O)N[C@@H](Cc4ccccc4Cl)C(=O)N[C@@H](Cc4csc5ccccc45)C(=O)N[C@@H](CCC(N)=O)C(N)=O)(C3)NC(=O)[C@H](CO)NC(=O)[C@H](Cc3ccccc3)NC(=O)[C@H](CC(C)C)NC(=O)[C@H](CC(C)C)NC(=O)[C@H](CC(=O)O)NC(=O)[C@H](CC(=O)O)NC1=O)NC(=O)[C@H](Cc1ccccc1)NC(=O)[C@H](CC(=O)O)NC2=O (stereo partly drawn) [I-1155]	IC50	nM	60
CC(=O)N1CCC[C@]12CCCCCCC1(CCCCCCOC(=O)N3CC(C(=O)N[C@@H](Cc4ccsc4)C(=O)N[C@@H](Cc4csc5ccccc45)C(=O)N[C@@H](CCC(N)=O)C(N)=O)(C3)NC(=O)[C@H](CC(N)=O)NC(=O)[C@H](Cc3ccccc3)NC(=O)[C@H](C)NC(=O)[C@H](C)NC(=O)[C@H](CC(=O)O)NC(=O)[C@H](CC(=O)O)NC1=O)NC(=O)[C@H](CC(C)(C)C)NC(=O)[C@H](CC(=O)O)NC2=O (stereo partly drawn) [I-1831]	IC50	nM	1630
CC(=O)N1CCC[C@]12CC=CCCCC1(CCCC=CCCCOC(=O)N3CC[C@@](C(=O)N[C@@H](Cc4ccsc4)C(=O)N[C@@H](Cc4csc5ccccc45)C(=O)N[C@@H](CCC(N)=O)C(N)=O)(C3)NC(=O)[C@H](CC(C)C)NC(=O)[C@H](Cc3ccccc3)NC(=O)[C@H](C)NC(=O)[C@H](C)NC(=O)[C@H](CC(=O)O)NC(=O)[C@H](CC(=O)O)NC1=O)NC(=O)[C@H]([C@@H](C)O)NC(=O)[C@H](CC(=O)O)NC2=O (stereo partly drawn) [I-1515]	IC50	nM	24
CC(=O)N1CCC[C@H]1C(=O)N[C@@H](CC(=O)O)C(=O)N[C@@H](CC(C)(C)C)C(=O)N[C@]1(C)CCC=CCCCOC(=O)N2CC[C@@](C(=O)N[C@@H](Cc3ccsc3)C(=O)N[C@@H](Cc3csc4ccccc34)C(=O)N[C@@H](CCC(N)=O)C(N)=O)(C2)NC(=O)[C@H](CC(C)C)NC(=O)[C@H](Cc2ccccc2)NC(=O)[C@H](C)NC(=O)[C@H](C)NC(=O)[C@H](CC(=O)O)NC(=O)[C@H](CC(=O)O)NC1=O [I-1989]	IC50	nM	186
CC(=O)N1CCC[C@]12CC=CCCCC1(CCCC=CCCCOC(=O)N3CC[C@@](C(=O)N[C@@H](Cc4ccccc4Cl)C(=O)N[C@@H](Cc4csc5ccccc45)C(=O)N[C@@H](CCC(N)=O)C(N)=O)(C3)NC(=O)[C@H](CC(N)=O)NC(=O)[C@H](Cc3ccccc3)NC(=O)[C@H](C)NC(=O)[C@H](C)NC(=O)[C@H]([C@@H](C)O)NC(=O)[C@H](CC(N)=O)NC1=O)NC(=O)[C@H](CC(C)(C)C)NC(=O)[C@H](CC(=O)O)NC2=O (stereo partly drawn) [I-1999]	IC50	nM	4940
CC(=O)N1CCC[C@]12CC=CCCCC1(CCCC=CCCCCCC[C@@](C)(C(=O)N[C@@H](Cc3ccccc3)C(=O)N[C@@H](Cc3csc4ccccc34)C(=O)N[C@@H](Cc3c[nH]cn3)C(=O)N[C@H](C)C(N)=O)NC(=O)[C@H](CC(N)=O)NC(=O)[C@H](Cc3ccccc3)NC(=O)[C@H](C)NC(=O)[C@H](C)NC(=O)[C@H](CCC(=O)O)NC(=O)[C@H](CC(=O)O)NC1=O)NC(=O)[C@H](CC(C)C)NC(=O)[C@H](CC(=O)O)NC2=O (stereo partly drawn) [I-739]	IC50	nM	53
CC(=O)N1CCC[C@]12CC=CCCCC1(CCCC=CCCCOC(=O)N3CC[C@@](C(=O)N[C@@H](Cc4ccsc4)C(=O)N[C@@H](Cc4csc5ccccc45)C(=O)N[C@@H](CCC(N)=O)C(N)=O)(C3)NC(=O)[C@H](CC(N)=O)NC(=O)[C@H](Cc3ccccc3)NC(=O)[C@H](C)NC(=O)[C@H](C)NC(=O)[C@H]([C@@H](C)O)NC(=O)[C@H](CC(N)=O)NC1=O)NC(=O)[C@H](CC(C)(C)C)NC(=O)[C@H](CN(CC(=O)O)CC(F)(F)F)NC2=O (stereo partly drawn) [I-2130]	IC50	nM	4920
CC(=O)N1CCC[C@]12CCCCCCC1(CCCCCCCCOC(=O)N3CC[C@@](C(=O)N[C@@H](Cc4ccccc4Cl)C(=O)N[C@@H](Cc4csc5ccccc45)C(=O)N[C@@H](CCC(N)=O)C(N)=O)(C3)NC(=O)[C@H](CC(N)=O)NC(=O)[C@H](Cc3ccccc3)NC(=O)[C@H](C)NC(=O)[C@H](C)NC(=O)[C@H](CC(=O)O)NC(=O)[C@H](CC(=O)O)NC1=O)NC(=O)[C@H](CC(C)(C)C)NC(=O)[C@H](CC(=O)O)NC2=O (stereo partly drawn) [I-1464]	IC50	nM	168
